- target under test: T1, hIL2Rg-Fc (SinoBiological cat#10555) (human, UniProt P31785 23-254, limits assumed)
- T1 construct: Bought Fc fusion (SinoBiological cat#10555); P31785 is printed for hCD132 in the background; also called human IL2Rg-Fc; not shown: Fc of the bought fusion protein
- T1 sequence (looked up): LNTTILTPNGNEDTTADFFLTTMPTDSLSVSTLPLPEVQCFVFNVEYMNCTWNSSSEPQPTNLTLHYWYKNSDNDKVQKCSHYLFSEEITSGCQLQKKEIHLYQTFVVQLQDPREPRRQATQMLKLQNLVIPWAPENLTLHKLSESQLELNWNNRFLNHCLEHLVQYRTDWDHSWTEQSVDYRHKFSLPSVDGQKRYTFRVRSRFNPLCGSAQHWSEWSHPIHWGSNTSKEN
- assay comment: SPR (Biacore T200), Fc-fused ligand captured on chip, dual VHH as analyte, 1:1 Langmuir fit
Assign T whenever koff does not fall below 0.005 s⁻¹; assign F whenever it does.

Worked set:
* DR465(DR240-DR231) (bispecific antibody, Anti-hIL10Ra/hIL2Rg dual VHH with ASH6 handle; also called H1) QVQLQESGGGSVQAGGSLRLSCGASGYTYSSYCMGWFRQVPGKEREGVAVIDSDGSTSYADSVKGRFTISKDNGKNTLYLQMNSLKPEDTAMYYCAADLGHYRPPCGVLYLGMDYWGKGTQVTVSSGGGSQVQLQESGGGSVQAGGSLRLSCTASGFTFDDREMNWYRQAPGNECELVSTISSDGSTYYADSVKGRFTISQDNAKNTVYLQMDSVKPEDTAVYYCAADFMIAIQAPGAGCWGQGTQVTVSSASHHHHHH | F
* DR449(DR237-DR233) (bispecific antibody, Anti-hIL10Ra/hIL2Rg dual VHH with ASH6 handle; also called F3) QVQLQESGGGSVQAGGSLRLSCAASGYTYSMYCMGWFRQAPGKEREGVAQINSDGSTSYADSVKGRFTISKDNAKNTLYLQMNSLKPEDTAMYYCAADSRVYGGSWYERLCGPYTYEYNYWGQGTQVTVSSGGGSQVQLQESGGGSVQAGGSLRLSCTASGFTFDDSDMGWYRQAPGNECELVSTISSDGSTYYADSVKGRFTISQDNAKNTVYLQMNSLKPEDTAVYYCAAEPRGYYSNYGGRRECNYWGQGTQVTVSSASHHHHHH | T
* DR395(DR229-DR239) (bispecific antibody, Anti-hIL10Ra/hIL2Rg dual VHH with ASH6 handle; also called A2) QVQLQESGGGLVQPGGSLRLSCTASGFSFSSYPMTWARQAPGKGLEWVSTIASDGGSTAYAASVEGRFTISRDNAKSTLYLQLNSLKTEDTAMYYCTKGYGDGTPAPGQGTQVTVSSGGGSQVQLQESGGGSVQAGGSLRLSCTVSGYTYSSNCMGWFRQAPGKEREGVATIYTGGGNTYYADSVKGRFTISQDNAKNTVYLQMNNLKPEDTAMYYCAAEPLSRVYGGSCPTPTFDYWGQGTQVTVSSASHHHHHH | T

Please look at the following binder next.
Qu. Given DR441(DR236-DR231) (bispecific antibody, Anti-hIL10Ra/hIL2Rg dual VHH with ASH6 handle; also called F1) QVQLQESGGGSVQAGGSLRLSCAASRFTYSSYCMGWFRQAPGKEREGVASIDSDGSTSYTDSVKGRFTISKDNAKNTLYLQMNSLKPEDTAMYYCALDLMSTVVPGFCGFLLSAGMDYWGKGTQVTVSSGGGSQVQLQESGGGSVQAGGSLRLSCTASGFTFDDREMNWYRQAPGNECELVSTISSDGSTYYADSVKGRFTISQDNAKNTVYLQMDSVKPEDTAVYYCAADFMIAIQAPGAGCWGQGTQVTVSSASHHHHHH , state whether its koff is at least 0.005 s⁻¹.
Ans. T
